Data origin, for the record: paper PMC8772704

# assay_procedure: Long-term storage stability of antibiotics in combination with fosfomycin spiked in plasma/CAMHB (−30 °C, −80 °C)
# Format: physicochemical
# measurement_context: CAMHB, combination with fosfomycin, 4 weeks at -80 °C; HQC (nominal as E15)
test_readout: Mean accuracy (%), Table S18

C[C@]1(Cn2ccnn2)[C@H](C(=O)O)N2C(=O)C[C@H]2S1(=O)=O
106.4
C[C@@H](O)[C@H]1C(=O)N2C(C(=O)O)=C(S[C@@H]3CN[C@H](CNS(N)(=O)=O)C3)[C@H](C)[C@H]12
105.8
CN(C)c1cc(NC(=O)CNC(C)(C)C)c(O)c2c1C[C@H]1C[C@H]3[C@H](N(C)C)C(O)=C(C(N)=O)C(=O)[C@@]3(O)C(O)=C1C2=O
91.0
C[C@@H](O)[C@H]1C(=O)N2C(C(=O)O)=C(S[C@@H]3CN[C@H](C(=O)N(C)C)C3)[C@H](C)[C@H]12
97.4
CO/N=C(\C(=O)N[C@@H]1C(=O)N2C(C(=O)[O-])=C(C[N+]3(C)CCCC3)CS[C@H]12)c1csc(N)n1 [Cefepime, cefepime]
93.2
